All values here come from the supplement of paper PMC10065799.

Below is a list of entries, each paired with its recorded phosphorylation enrichment value.
target: Jak2 (UniProt O60674); assay: phosphorylation enrichment, bacterial display (enrichment ratio); higher = better substrate or ligand; peptides without Tyr show the background;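 further: 11-residue human phosphosite peptides and single-mutation variants displayed on the E. coli surface, counted by deep sequencing, each peptide's frequency after selection divided by its frequency in the unselected input library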;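 further: frequency after pTyr selection over input frequency; kinase dosed for 20-30% of maximal phosphorylation in three min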
Sequence (O60674 whole entry, looked up): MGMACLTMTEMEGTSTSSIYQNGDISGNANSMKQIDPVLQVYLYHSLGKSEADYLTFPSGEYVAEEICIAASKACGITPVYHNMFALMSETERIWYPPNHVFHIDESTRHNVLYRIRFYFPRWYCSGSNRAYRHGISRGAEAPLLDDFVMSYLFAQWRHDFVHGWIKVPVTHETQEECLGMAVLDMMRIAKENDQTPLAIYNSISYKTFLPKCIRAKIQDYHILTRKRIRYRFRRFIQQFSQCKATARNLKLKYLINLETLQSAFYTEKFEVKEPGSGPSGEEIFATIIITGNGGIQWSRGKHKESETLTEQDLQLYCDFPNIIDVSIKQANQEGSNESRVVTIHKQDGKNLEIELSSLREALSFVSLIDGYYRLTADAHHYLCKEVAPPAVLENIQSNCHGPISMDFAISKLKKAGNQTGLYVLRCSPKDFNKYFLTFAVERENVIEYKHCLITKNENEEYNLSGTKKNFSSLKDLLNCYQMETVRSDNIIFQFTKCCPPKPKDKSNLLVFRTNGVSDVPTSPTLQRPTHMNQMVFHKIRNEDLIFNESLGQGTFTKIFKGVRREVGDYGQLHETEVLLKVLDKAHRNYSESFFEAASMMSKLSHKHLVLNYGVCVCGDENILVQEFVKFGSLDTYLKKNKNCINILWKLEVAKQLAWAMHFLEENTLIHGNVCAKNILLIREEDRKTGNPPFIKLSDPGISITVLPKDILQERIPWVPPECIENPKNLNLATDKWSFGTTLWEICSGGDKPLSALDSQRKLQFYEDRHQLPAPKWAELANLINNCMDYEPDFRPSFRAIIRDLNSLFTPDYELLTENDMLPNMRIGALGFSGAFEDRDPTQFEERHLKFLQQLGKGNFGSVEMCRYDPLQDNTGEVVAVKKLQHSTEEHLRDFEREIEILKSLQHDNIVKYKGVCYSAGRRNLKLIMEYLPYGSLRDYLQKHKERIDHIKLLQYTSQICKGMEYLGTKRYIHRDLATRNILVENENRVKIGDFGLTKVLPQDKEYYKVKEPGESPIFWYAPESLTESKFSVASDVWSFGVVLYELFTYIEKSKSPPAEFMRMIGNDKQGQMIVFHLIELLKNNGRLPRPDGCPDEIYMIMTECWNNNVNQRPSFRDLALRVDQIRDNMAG
result_type: phosphorylation enrichment

                   biopolymer_sequence  measured_value
 0       IEKLPYIDKWF [CPS1_Y872_T871P]           0.833
 1           KDQGTYEDFVE [MYL6_Y86_YF]            1.94
 2            PRLLRYLQLDF [ASB10_Y457]            1.53
 3              GSRGKYSSGFR [ATM_Y332]            0.62
 4    FHIDHYLGKEM [G6PD_Y202_R198H_YF]           0.467
 5            TRDVNYGWIIR [MT-CYB_Y75]           0.949
 6     ASMAKYYASGI [ACADSB_Y372_E376G]           0.604
 7      PEVSGYCHFAD [TG_Y234_C237Y_YF]            1.15
 8     YETDYYQKGGK [INSR_Y1190_R1191Q]           0.716
 9            KSVSQYLEMDK [CAGE1_Y438]           0.907
10   LRWREYQRQDF [PRKRIP1_Y90_R87W_YF]            6.28
11              EEGESYVCSSD [DCX_Y125]            1.21
12   IIRFNYLLDVL [FGFR4_Y237_S232I_YF]            0.89
13       SVVVPHEPPEV [TP53_Y220_Y220H]           0.755
14         SLFPGYNFRFA [P2RX7_Y291_YF]           0.673
15            LVKDGYQMAQP [CSF1R_Y873]           0.512
16          RRMLQYLTVND [PPFIBP2_Y663]           0.882
17     CSSPTYRDCLQ [LARGE2_Y682_R677C]           0.846
18            LKRCQYVTEKV [ALDOA_Y204]            2.26
19          LNTFHYAGVSA [POLR2A_Y1109]           0.584
20       VGNPAYRSFSN [IL4R_Y497_A492V]           0.608
21         FLGRDYLETLM [DUS3L_Y610_YF]           0.748
22           GDFSRYDEGSG [RECQL5_Y484]           0.905
23     RNPLRYTSILT [OR51B6_Y130_S126N]           0.892
24              PQGVRYIYTID [DCX_Y103]            2.21
25        IKKLIYVYLVI [JAGN1_Y42_H44Y]           0.817
26      AVISVYDLVAF [PSEN1_Y256_V261F]            1.08
27        AAILGYCHGEA [XPC_Y669_R671H]           0.725
28            KILAKYLLETS [NAMPT_Y175]           0.645
29             DAVAVYHGKIS [SH2D1A_Y7]           0.603
30     PAIYTYDEYKK [COL8A2_Y648_T645I]            1.27
31            KPEKTYGLRKE [CEP43_Y267]           0.683
32      DGYTDYAEFAK [MCFD2_Y138_I136T]           0.765
33         QRALLYEDALF [UNC13D_Y56_YF]           0.867
34    QHVPDYRQNGY [PCDHGA1_Y890_V894G]           0.719
35         NFHRGYHLQVL [CD200R1L_Y138]            0.54
36             YEREQYADRAR [RBM4_Y355]           0.575
37        QPGDICHQTWA [GBA_Y244_Y244C]           0.906
38      MSRYIYSTDYY [NTRK1_Y676_D674Y]            2.09
39      LMVFEYMRHGN [NTRK1_Y591_D596N]            1.54
40             GFSDPYVKASL [SYT3_Y470]           0.646
41           WGLRSYYETSK [MAGED2_Y448]           0.972
42                         AKIDGYITSFR           0.535
43          EVLKNYNQQKD [GOLGA4_Y1551]           0.969
44        RLQEDYDHSYY [ESD_Y258_G257D]            1.56
45       KLGDVYVNVAF [PGK1_Y161_D164V]           0.965
46  VAFLFYKSIGP [ADGRL4_Y302_V300L_YF]            1.98
47  RFLERYIFNRQ [HLA-DPB1_Y57_E62Q_YF]            1.71
48   EEKKKYFDAKI [CASP5_Y103_T106A_YF]           0.684
49        KVDKEYEVGVR [GHR_Y226_R229G]           0.553
50       SVTCTHSPALN [TP53_Y126_Y126H]           0.759
51            PVGDAYKKKGL [NMNAT1_Y55]           0.787
52             ENFDDYMKEVG [FABP4_Y20]            1.06
53     ETKKQYNSFTF [TMED3_Y85_D86N_YF]           0.719
54             REVVNYVQKRN [RMI1_Y450]           0.598
55        PTQLPYDHKWK [KIT_Y578_E583K]           0.626
56             SIGLGYHKDLQ [NF1_Y1169]           0.548
57          RGNMFYENSFA [EGFR_Y113_YF]            1.01
